Here we list compounds with their recorded log10(MIC) when tested on S. aboni.
Structures can show the parent of a compound that is named as a salt.
measured metric: log10(MIC) (log10 of the value in µg/mL)

compound	log10(MIC)
Oc1cc(O)c(C=NNc2ccccn2)c(O)c1	2.11
NC(=NN=Cc1c(O)ccc2ccccc12)c1cccnc1	1.51
NC(=NN=Cc1cc(Br)cc([N+](=O)[O-])c1O)c1cccnc1	2.41
NC(=NN=Cc1ccc(O)c(O)c1)c1ccc2ccccc2n1	2.41
N/C(=N\N=C\c1c2ccccc2cc2ccccc12)c1ccncc1	1.51
O=[N+]([O-])c1cc(Br)cc(C=NNc2ccccn2)c1O	2.11
NC(=NN=Cc1cc(O)c(O)cc1O)c1cccnc1	2.41
CN(C)c1ccc(/C=N/N=C(\N)c2ccncc2)c2ccccc12	1.51
CN[C@H](CC(C)C)C(=O)N[C@H]1C(=O)N[C@@H](CC(N)=O)C(=O)N[C@H]2C(=O)N[C@H]3C(=O)N[C@H](C(=O)N[C@H](C(=O)O)c4cc(O)cc(O)c4-c4cc3ccc4O)[C@H](O)c3ccc(c(Cl)c3)Oc3cc2cc(c3O[C@@H]2O[C@H](CO)[C@@H](O)[C@H](O)[C@H]2O[C@H]2C[C@](C)(N)[C@H](O)[C@H](C)O2)Oc2ccc(cc2Cl)[C@H]1O [Vanc., Vancomycin hydrochloride, reference compound]	-1.30
CC1(C)S[C@@H]2[C@H](NC(=O)[C@H](N)c3ccccc3)C(=O)N2[C@H]1C(=O)O [Amp., Ampicillin, reference compound]	-1.30
NC(=NN=Cc1cc([N+](=O)[O-])ccc1O)c1cccnc1	2.41
Cc1onc(-c2c(F)cccc2Cl)c1C(=O)N[C@@H]1C(=O)N2[C@@H]1SC(C)(C)[C@@H]2C(=O)O [Fluclox., Flucloxacillin, reference compound]	-1.30
O=Cc1cc([N+](=O)[O-])ccc1O	0.00

* * *

- System: MRSA
- protocol details: MIC, agar dilution, multipoint inoculator
- Format: cell-based, methicillin-resistant Staphylococcus aureus
- measurement conditions: MRSA Isolate 9; upper value of MIC reading; in µg/mL
- Method: This activity was measured using a multipoint inoculator method as follows. The MIC for each compound was measured using an agar dilution method (Onda, H., et al., Int. J. Antimicrob. Agents. 18, 263 (2001)) (Mueller Hinton agar) by means of a multipoint inoculator delivering 10^4 colony forming units per spot. ‘Staph’ refers to the reference strain of S. aureus (NCTC 6571). […]
Structures can show the parent of a compound that is named as a salt.
Threshold 100. MIC below it: yes. MIC at it or above: no.

molecule	label
CN[C@H](CC(C)C)C(=O)N[C@H]1C(=O)N[C@@H](CC(N)=O)C(=O)N[C@H]2C(=O)N[C@H]3C(=O)N[C@H](C(=O)N[C@H](C(=O)O)c4cc(O)cc(O)c4-c4cc3ccc4O)[C@H](O)c3ccc(c(Cl)c3)Oc3cc2cc(c3O[C@@H]2O[C@H](CO)[C@@H](O)[C@H](O)[C@H]2O[C@H]2C[C@](C)(N)[C@H](O)[C@H](C)O2)Oc2ccc(cc2Cl)[C@H]1O [Vanc., Vancomycin hydrochloride, reference compound]	yes
CN(C)CCCOc1ccc(C=NN=C(N)c2ccc3ccccc3n2)cc1	yes
O=Cc1cc([N+](=O)[O-])ccc1O	yes
NC(=NN=Cc1cc(Br)cc([N+](=O)[O-])c1O)c1cccnc1	yes
CN(C)c1ccc(/C=N/N=C(\N)c2ccncc2)c2ccccc12	no
NC(=NN=Cc1ccc(O)c(O)c1O)c1cnccn1	no
O=[N+]([O-])c1cc(Br)cc(C=NNc2ccccn2)c1O	no
O=Cc1cc(Br)cc([N+](=O)[O-])c1O	yes
Oc1cc(O)c(C=NNc2ccccn2)c(O)c1	no

* * *

Catalogue of compounds with associated MIC
- Test system: MRSA
- protocol details: MIC, agar dilution, multipoint inoculator
- Assay type: cell-based, methicillin-resistant Staphylococcus aureus
- measurement conditions: Staphylococcus aureus, 18 h, MRSA Isolate 1; upper value of MIC reading; read-out: MIC
- Experimental: This activity was measured using a multipoint inoculator method as follows. The MIC for each compound was measured using an agar dilution method (Onda, H., et al., Int. J. Antimicrob. Agents. 18, 263 (2001)) (Mueller Hinton agar) by means of a multipoint inoculator delivering 10^4 colony forming units per spot. ‘Staph’ refers to the reference strain of S. aureus (NCTC 6571). […]

compound	endpoint unit	MIC
CC(C)(C)c1cc(/C=N/N=C(\N)c2ccncc2)c(O)c(C(C)(C)C)c1 [Compound 4PYcq]	µg/mL	4
CCC(C)(C)c1ccc(/C=N/N=C(\N)c2ccncc2)cc1 [Compound 4PYaf]	µg/mL	64
Cc1onc(-c2c(F)cccc2Cl)c1C(=O)N[C@@H]1C(=O)N2[C@@H]1SC(C)(C)[C@@H]2C(=O)O [Fluclox., Flucloxacillin, reference compound]	µg/mL	0.05
CCC(C)(C)c1ccc(/C=N/N=C(\N)c2cccnc2)cc1 [Compound 3PYaf]	µg/mL	64
CC1(C)S[C@@H]2[C@H](NC(=O)[C@H](N)c3ccccc3)C(=O)N2[C@H]1C(=O)O [Amp., Ampicillin, reference compound]	µg/mL	0.12
N/C(=N\N=C\c1c2ccccc2cc2ccccc12)c1ccncc1 [Compound 4PYam]	µg/mL	32
N/C(=N\N=C\c1ccccc1Sc1ccc(Cl)cc1)c1ccncc1 [Compound 4PYeh]	µg/mL	16

* * *

- Test system: MRSA
- protocol details: MIC, agar dilution, multipoint inoculator
- Assay type: cell-based, methicillin-resistant Staphylococcus aureus
- measurement conditions: Staphylococcus aureus, 18 h, MRSA Isolate 8; upper value of MIC reading; read-out: MIC
- Procedure: This activity was measured using a multipoint inoculator method as follows. The MIC for each compound was measured using an agar dilution method (Onda, H., et al., Int. J. Antimicrob. Agents. 18, 263 (2001)) (Mueller Hinton agar) by means of a multipoint inoculator delivering 10^4 colony forming units per spot. ‘Staph’ refers to the reference strain of S. aureus (NCTC 6571). […]
Catalogue of compounds with associated MIC

compound	MIC / mg/L
Cc1onc(-c2c(F)cccc2Cl)c1C(=O)N[C@@H]1C(=O)N2[C@@H]1SC(C)(C)[C@@H]2C(=O)O [Fluclox., Flucloxacillin, reference compound]	8
CC(C)(C)c1cc(/C=N/N=C(\N)c2ccncc2)c(O)c(C(C)(C)C)c1	4
N/C(=N\N=C\c1ccccc1Sc1ccc(Cl)cc1)c1ccncc1	32

* * *

- Test system: E. faecalis
- protocol details: MIC, agar dilution, multipoint inoculator
- Assay type: cell-based
- measurement conditions: E. faecalis Isolate 1; upper value of MIC reading
Catalogue of molecules with associated MIC
measured metric: MIC (µg/mL)

molecule	test system	val
NC(=NN=Cc1cc([N+](=O)[O-])ccc1O)c1cccnc1 [Compound 3PYcj]	E. faecalis	128
NC(=NN=Cc1cc(Br)cc([N+](=O)[O-])c1O)c1cccnc1 [Compound 3PYcl]	E. faecalis	128
CN(C)CCCOc1ccc(C=NN=C(N)c2ccc3ccccc3n2)cc1 [QNds]	E. faecalis	128
Oc1cc(O)c(C=NNc2ccccn2)c(O)c1 [HDcd]	E. faecalis	128
NC(=NN=Cc1ccc(O)c(O)c1)c1ccc2ccccc2n1 [QNca]	E. faecalis	256
CCOc1ccccc1C=NN=C(N)c1cccnc1 [Compound 3PYay]	E. faecalis	128
O=Cc1cc([N+](=O)[O-])ccc1O [cj]	E. faecalis	256
CN(C)c1ccc(/C=N/N=C(\N)c2ccncc2)c2ccccc12 [Compound 4PYdx]	E. faecalis	256
NC(=NN=Cc1cc(O)c(O)cc1O)c1cccnc1 [Compound 3PYcc]	E. faecalis	256
O=[N+]([O-])c1cc(Br)cc(C=NNc2ccccn2)c1O [HDcl]	E. faecalis	128

* * *

Catalogue of compounds with associated MIC
- Test system: E. faecalis
- protocol details: MIC, agar dilution, multipoint inoculator
- Type: cell-based
- measurement conditions: Enterococcus faecalis, 18 h, E. faecalis EBH1; upper value of MIC reading; read-out: MIC
measured metric: MIC (µg/mL)

compound	val
Cc1onc(-c2c(F)cccc2Cl)c1C(=O)N[C@@H]1C(=O)N2[C@@H]1SC(C)(C)[C@@H]2C(=O)O [Fluclox., Flucloxacillin, reference compound]	0.5
CCC(C)(C)c1ccc(/C=N/N=C(\N)c2cccnc2)cc1	128
CCC(C)(C)c1ccc(/C=N/N=C(\N)c2ccncc2)cc1	64
CC(C)(C)c1cc(/C=N/N=C(\N)c2ccncc2)c(O)c(C(C)(C)C)c1	4
CC1(C)S[C@@H]2[C@H](NC(=O)[C@H](N)c3ccccc3)C(=O)N2[C@H]1C(=O)O [Amp., Ampicillin, reference compound]	0.05

* * *

- Test system: MRSA
- protocol details: MIC, agar dilution, multipoint inoculator
- Format: cell-based, methicillin-resistant Staphylococcus aureus
- measurement conditions: Staphylococcus aureus, 18 h, MRSA Isolate 8; upper value of MIC reading; read-out: MIC
Catalogue of compounds with associated MIC

compound	test system	endpoint unit	MIC
CC1(C)S[C@@H]2[C@H](NC(=O)[C@H](N)c3ccccc3)C(=O)N2[C@H]1C(=O)O [Amp., Ampicillin, reference compound]	MRSA	µg/mL	8
N/C(=N\N=C\c1c2ccccc2cc2ccccc12)c1ccncc1	MRSA	µg/mL	64
CCC(C)(C)c1ccc(/C=N/N=C(\N)c2ccncc2)cc1	MRSA	µg/mL	64
CCC(C)(C)c1ccc(/C=N/N=C(\N)c2cccnc2)cc1	MRSA	µg/mL	64
